B1: CCDC6 (parent)
chain: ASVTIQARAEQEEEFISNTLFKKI

- Variants of: B1
- assay text: protein stability index of a GFP-peptide fusion (GPS, HEK-293T) (PSI 1-6); higher = more stable;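 note: lentivirally expressed fusions sorted by FACS into six bins by GFP to DsRed ratio, PSI derived from sequencing read proportions per bin multiplied by bin number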
- cond: c terminus: a fixed tail appended
measure name: protein stability index
Write the value as a bare number.

Name the recorded protein stability index of the variant listed here: ASVTIQARAEQREEFISNTLFKKI [E12R]
2.7

Name the recorded protein stability index of the variant listed here: ASVTIQARAEEEEEFISNTLFKKI [Q11E]
4.13

Name the recorded protein stability index of the variant listed here: ASVTIQARAEQEEEFISCTLFKKI [N18C]
2.79

Name the recorded protein stability index of the variant listed here: ASVTIQARAEQEEEFIANTLFKKI [S17A]
3.64
